Source: patent US10226448B2

# Test system: IL-6 in THP-1 cells
# TEST SUMMARY: IL-6 inhibition in LPS-stimulated THP-1 human monocyte cells (HTRF)
# Type: cell-based
# CONDITIONS USED: IL-6 inhibition, LPS-stimulated THP-1 cells, HTRF, 10-point dose-response starting from 10 μM
# Protocol: Compound Screening: THP-1 cells were cultured in basal media with 1% FBS for 24 hours before the start of the assay. […] THP-1 cells were plated at 5000 cells/well in the 384-well plates and incubated at 37° C. for 2 h. […] Following incubation for 3 hrs at room temperature, Homogeneous Time-Resolved Fluorescence (HTRF) was measured using the Envision (Perkin Elmer) at 665 nm and […]. The ratio of fluorescence at 665 nm to 620 nm was used as a readout for IL6 quantification. […]
METRIC NAME: EC50 (nM)

Fc1cccc(-c2nccc3[nH]c(-c4n[nH]c5ncc(C6CCNCC6)cc45)cc23)c1; 3450
Fc1cccc(-c2nccc3[nH]c(-c4n[nH]c5ncc(-c6cncc(CN7CCCCC7)c6)cc45)cc23)c1; 4780

[I] CC(C)C(=O)Nc1cncc(-c2cnc3[nH]nc(-c4cc5c(N6CCN(C)CC6)nccc5[nH]4)c3c2)c1
[II] Cn1cc(-c2cnc3[nH]nc(-c4cc5c(-c6cccnc6)nccc5[nH]4)c3c2)cn1
[III] c1cc2[nH]c(-c3n[nH]c4ncc(-c5cncc(OC6CCCCC6)c5)cc34)cc2c(N2CCCCC2)n1
Q: Write the entries in order, lowest recorded EC50 first. The reply should contain the labels ordered as requested.
Ans: II, I, III
(II: 355 nM, I: 611 nM, III: 7280 nM)

[P] CC(C)Nc1cncc(-c2cnc3[nH]nc(-c4cc5c(-c6ccccc6F)nccc5[nH]4)c3c2)c1
[Q] CS(=O)(=O)NCc1cc(F)cc(-c2nccc3[nH]c(-c4n[nH]c5ncc(-c6cncc(NC(=O)C7CCC7)c6)cc45)cc23)c1
Q: Lab note: record which item had the higher EC50, P or Q . Answer by quoting the chosen item's label.
Ans: P

[A] CCC(=O)Nc1cncc(-c2cnc3[nH]nc(-c4cc5cnccc5[nH]4)c3c2)c1
[B] CC(C)CC(=O)Nc1cncc(-c2cnc3[nH]nc(-c4cc5c(N6CCN(C)CC6)nccc5[nH]4)c3c2)c1
Q: Kindly compare A with B and tell me which has the lower EC50 figure. Kindly state the label of the option you pick.
Ans: B

[a] Fc1cccc(-c2nccc3[nH]c(-c4n[nH]c5ncc(-c6cccnc6)cc45)cc23)c1
[b] CN1CCN(c2nccc3[nH]c(-c4n[nH]c5ncc(-c6cncc(NC(=O)C7CCCC7)c6)cc45)cc23)CC1
Q: Lowest EC50? choose a or b Answer = label.
Ans: a

###

# Test system: Wnt activity (Sp5-Luc reporter, TCF/LEF binding sites) in SW480 colon carcinoma cells
# TEST SUMMARY: Wnt activity screening assay: Sp5-Luc reporter gene assay in SW480 cells
# Format: cell-based
# CONDITIONS USED: Homo sapiens, SW480; read-out: percent inhibition at 10 μM
inhibition at 10 µM reference
Kindly provide the numeric value in % only, without the unit symbol.

CS(=O)(=O)NCc1cc(F)cc(-c2nccc3[nH]c(-c4n[nH]c5ncc(-c6cncc(CNCc7ccccc7)c6)cc45)cc23)c1 [Compound 500]; 19.1
CN1CCN(c2nccc3[nH]c(-c4n[nH]c5ncc(-c6cncc(N)c6)cc45)cc23)CC1 [Compound 227]; 28.1
CC(C)C(=O)Nc1cncc(-c2cnc3[nH]nc(-c4cc5c(N6CCN(C)CC6)nccc5[nH]4)c3c2)c1 [Compound 233]; 19.5

Q: So what does the record say about inhibition at 10 µM for CN(C)c1cncc(-c2cnc3[nH]nc(-c4cc5c(-c6cccnc6)nccc5[nH]4)c3c2)c1 [Compound 91] ?
Ans: 41.6
